Measured values drawn from PubChem BioAssay (NCI) for this set.

system: U251 CNS; assay: NCI-60 one-dose screen, 48 h (100 = growth as untreated, 0 = no growth, -100 = all killed); conditions: 10 µM unless noted
About 83,000 compounds went through this panel and 20% of them were active in at least one assay; those are over-represented in the sample as a whole.
Entries annotated with measured growth
OUTCOME_MEASURE: growth (%)

{"MOLECULE": "O=C(CC1(O)C(=O)Nc2ccc(F)cc21)c1ccc(C(=O)NCC2CCC3(CC2)OOC2(CCCCC2)OO3)cc1 (centres undefined)", "OUTCOME_MEASURE": "growth", "UNIT_SPEC": "%", "ENDPOINT_RESULT": 15.3}
{"MOLECULE": "ClCCN(CCCl)c1ccc(/C=C\\c2ccnc3ccccc23)cc1", "OUTCOME_MEASURE": "growth", "UNIT_SPEC": "%", "ENDPOINT_RESULT": 76.4}
{"MOLECULE": "CC12CCC3C(CC=C4CC(O)CCC43C)C1C/C(=C\\N1CCOCC1)C2=O (centres undefined)", "OUTCOME_MEASURE": "growth", "UNIT_SPEC": "%", "ENDPOINT_RESULT": 100}
{"MOLECULE": "Cc1cccc(N=C2c3cc([N+](=O)[O-])ccc3-c3c2cc([N+](=O)[O-])cc3[N+](=O)[O-])c1", "OUTCOME_MEASURE": "growth", "UNIT_SPEC": "%", "ENDPOINT_RESULT": 40.3}
{"MOLECULE": "NC(Cc1ccc2c(c1)OCO2)c1ccc2c(c1)OCO2 (centres undefined)", "OUTCOME_MEASURE": "growth", "UNIT_SPEC": "%", "ENDPOINT_RESULT": 107}
{"MOLECULE": "CCCCN(CCCC)CC(O)c1ccccc1 (centres undefined)", "OUTCOME_MEASURE": "growth", "UNIT_SPEC": "%", "ENDPOINT_RESULT": 100}
{"MOLECULE": "Cc1cc(C)nc(C)c1.[Cl][Hg][Cl]", "OUTCOME_MEASURE": "growth", "UNIT_SPEC": "%", "ENDPOINT_RESULT": 91.6}
{"MOLECULE": "NC(=O)C(Br)CBr (centres undefined)", "OUTCOME_MEASURE": "growth", "UNIT_SPEC": "%", "ENDPOINT_RESULT": 26.9}
{"MOLECULE": "O=c1[nH]c2cc(Cl)ccc2n1C1CCN(CCCC(c2ccc(F)cc2)c2ccc(F)cc2)CC1", "OUTCOME_MEASURE": "growth", "UNIT_SPEC": "%", "ENDPOINT_RESULT": 29.4}
{"MOLECULE": "CC(C)(NC(=O)c1nn(CCCCCF)c2ccccc12)c1ccccc1", "OUTCOME_MEASURE": "growth", "UNIT_SPEC": "%", "ENDPOINT_RESULT": 84.4}
{"MOLECULE": "CCCCCN(CCCCC)CC(O)c1ccc(C)c(Cl)c1 (centres undefined)", "OUTCOME_MEASURE": "growth", "UNIT_SPEC": "%", "ENDPOINT_RESULT": 92.4}
{"MOLECULE": "C[CH2][Pb]([CH2]C)([CH2]C)[O]C(=O)COC", "OUTCOME_MEASURE": "growth", "UNIT_SPEC": "%", "ENDPOINT_RESULT": -12.1}
{"MOLECULE": "C=CC(O)CN1CC1CC (centres undefined)", "OUTCOME_MEASURE": "growth", "UNIT_SPEC": "%", "ENDPOINT_RESULT": 93.8}
{"MOLECULE": "n1nc(-c2nonc2-c2nn[nH]n2)n[nH]1", "OUTCOME_MEASURE": "growth", "UNIT_SPEC": "%", "ENDPOINT_RESULT": 101}
{"MOLECULE": "Cn1cnnc1[S-].[Au+].c1ccc([PH+](c2ccccc2)c2ccccc2)cc1", "OUTCOME_MEASURE": "growth", "UNIT_SPEC": "%", "ENDPOINT_RESULT": -43.1}
{"MOLECULE": "O=c1cc[nH]c(=O)o1", "OUTCOME_MEASURE": "growth", "UNIT_SPEC": "%", "ENDPOINT_RESULT": 102}
{"MOLECULE": "Fc1ccc(C2=NN(c3ccccc3)C(c3sc(N(CCCl)CCCl)nc3Cl)C2)cc1 (centres undefined)", "OUTCOME_MEASURE": "growth", "UNIT_SPEC": "%", "ENDPOINT_RESULT": 85.9}
{"MOLECULE": "COc1ccc(/C=C\\c2cc(OC)c(OC)c(OC)c2)cc1N/C=C\\C(=O)c1c[nH]c2ccccc12", "OUTCOME_MEASURE": "growth", "UNIT_SPEC": "%", "ENDPOINT_RESULT": 15.5}
{"MOLECULE": "N#[N+]c1nc2nc(N)[nH]c(=O)c2[nH]1", "OUTCOME_MEASURE": "growth", "UNIT_SPEC": "%", "ENDPOINT_RESULT": 91.5}
